Readings of Ibalizumab ELISA binning signal for the listed binders
# subject.of.test: T1, huCD4-HIS (human, UniProt P01730 26-390, limits assumed)
# T1 construct: the ELISA binning is not described in the text of this stretch
# experiment.summary: ELISA binning, competitor Ibalizumab; 100 ng/mL huCD4-HIS, anti-HIS HRP detection; background 45, max binding 3000000
measured.attribute: Ibalizumab ELISA binning signal

[[record]]
binder = "75110_01K10A (antibody, V domains shown, Tested as non-clonal AlivaMab Mouse Kappa hybridoma supernatant: human variable domains and human kappa, mouse Fc) VH: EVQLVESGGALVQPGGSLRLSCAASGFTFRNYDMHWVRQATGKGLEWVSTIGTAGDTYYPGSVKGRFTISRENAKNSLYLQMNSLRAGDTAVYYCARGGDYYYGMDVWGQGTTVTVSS VL: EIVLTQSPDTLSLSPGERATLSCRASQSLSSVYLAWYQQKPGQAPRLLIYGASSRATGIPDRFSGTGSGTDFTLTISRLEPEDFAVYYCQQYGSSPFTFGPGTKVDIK"
numeric_value = 890000

[[record]]
binder = "75110_13P22A (antibody, IgG1, V domains shown, Tested as non-clonal AlivaMab Mouse Kappa hybridoma supernatant: human variable domains and human kappa, mouse Fc) VH: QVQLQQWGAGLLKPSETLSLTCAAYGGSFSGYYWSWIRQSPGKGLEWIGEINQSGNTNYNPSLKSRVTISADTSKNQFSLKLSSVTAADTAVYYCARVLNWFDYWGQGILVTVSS VL: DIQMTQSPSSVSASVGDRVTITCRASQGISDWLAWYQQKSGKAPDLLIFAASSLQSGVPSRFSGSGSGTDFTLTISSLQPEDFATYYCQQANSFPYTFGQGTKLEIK"
numeric_value = "1.16e+06"

[[record]]
binder = "75110_02I16A (antibody, IgG1, V domains shown, Tested as non-clonal AlivaMab Mouse Kappa hybridoma supernatant: human variable domains and human kappa, mouse Fc; also called 75110_02116A) VH: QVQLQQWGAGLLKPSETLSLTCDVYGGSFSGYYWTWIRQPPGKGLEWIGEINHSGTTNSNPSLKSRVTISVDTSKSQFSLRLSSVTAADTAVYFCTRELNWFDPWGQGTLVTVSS VL: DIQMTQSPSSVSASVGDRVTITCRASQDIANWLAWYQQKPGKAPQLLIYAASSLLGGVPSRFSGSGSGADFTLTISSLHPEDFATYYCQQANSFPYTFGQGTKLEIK"
numeric_value = 823000

[[record]]
binder = "75110_07B16A (antibody, IgG1, V domains shown, Tested as non-clonal AlivaMab Mouse Kappa hybridoma supernatant: human variable domains and human kappa, mouse Fc) VH: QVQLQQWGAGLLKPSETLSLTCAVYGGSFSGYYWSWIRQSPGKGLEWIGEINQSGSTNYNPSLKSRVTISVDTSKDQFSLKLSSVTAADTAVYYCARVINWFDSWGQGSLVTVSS VL: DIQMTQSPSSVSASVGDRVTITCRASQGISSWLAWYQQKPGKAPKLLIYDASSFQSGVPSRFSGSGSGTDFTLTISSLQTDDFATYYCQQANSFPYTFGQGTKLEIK"
numeric_value = "1.31e+06"

[[record]]
binder = "75110_04P06A (antibody, IgG1, V domains shown, Tested as non-clonal AlivaMab Mouse Kappa hybridoma supernatant: human variable domains and human kappa, mouse Fc) VH: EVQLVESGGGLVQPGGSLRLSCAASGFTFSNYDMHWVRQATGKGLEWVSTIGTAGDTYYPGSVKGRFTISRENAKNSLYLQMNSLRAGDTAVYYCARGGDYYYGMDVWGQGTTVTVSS VL: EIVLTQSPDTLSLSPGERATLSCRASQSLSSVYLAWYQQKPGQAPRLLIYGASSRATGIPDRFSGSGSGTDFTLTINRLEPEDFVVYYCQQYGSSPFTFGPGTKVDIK"
numeric_value = "1.22e+06"

